System: RXF 393 renal
assay text: NCI-60 one-dose screen, 48 h
assay setup: 10 µM unless noted
About 83,000 compounds went through this panel and 20% of them were active in at least one assay; those are over-represented in the sample as a whole. Active and inactive are the calls of the source. Rule for the calls: active = growth percent below 10; inactive = the rest.
Choose the fitting class; nothing outside true (1) (active), false (0) (inactive) is accepted.

>  <compound>
COc1ccc(-c2nc(/C=C3\SC(=NCc4ccccc4)NC3=O)c3ccccn23)cc1

>  <tested system>
RXF 393 renal

>  <class assignment>
true (1)

$$$$
>  <compound>
O=C1C(Cl)=C(Oc2ccccc2)C(=O)c2ccccc21

>  <tested system>
RXF 393 renal

>  <class assignment>
false (0)

$$$$
>  <compound>
CCOC(=O)C(=Cc1cccc(Br)c1)C(=O)OCC

>  <tested system>
RXF 393 renal

>  <class assignment>
false (0)

$$$$
>  <compound>
C#CCOc1cccc(Nc2ncnc3ccc(NC(=O)CCl)cc23)c1

>  <tested system>
RXF 393 renal

>  <class assignment>
true (1)

$$$$
>  <compound>
COc1cccc([C@H]2c3[nH]c4ccccc4c3C[C@H]3C(=O)N(CCCCCCC(=O)NO)CC(=O)N23)c1

>  <tested system>
RXF 393 renal

>  <class assignment>
false (0)

$$$$
>  <compound>
COc1ccc2[nH]cc(-c3nc(-c4cn(C)c5c(Cl)nccc45)cs3)c2c1

>  <tested system>
RXF 393 renal

>  <class assignment>
false (0)

$$$$
>  <compound>
N#Cc1c(NC(=O)c2ccccc2)sc2c1CCC(=O)C2

>  <tested system>
RXF 393 renal

>  <class assignment>
true (1)

$$$$
>  <compound>
CCCCNC(=O)Oc1ccc(/C(=C(/CC)Cc2ccccc2)c2ccc(OCCN3CCCCCC3)cc2)cc1

>  <tested system>
RXF 393 renal

>  <class assignment>
false (0)

$$$$
>  <compound>
Cc1noc(C)c1C(=O)OCc1coc2ccccc2c1=O

>  <tested system>
RXF 393 renal

>  <class assignment>
false (0)

$$$$
>  <compound>
CCCc1cc(NC)nc(S(=O)(=O)CC)n1

>  <tested system>
RXF 393 renal

>  <class assignment>
false (0)

$$$$

[ask] Recorded test outcome, item Cc1c(-n2nnc(-c3nc4ccccc4s3)c2N)c(=O)n(-c2ccccc2)n1C
[reply] false (0)

[ask] Called result for C#CCOc1ccc2ncnc(Nc3cccc(NC(=O)C=C)c3)c2c1
[reply] true (1)

###

Test system: MALME-3M melanoma
assay text: NCI-60 one-dose screen, 48 h
assay setup: 10 µM unless noted
About 83,000 compounds went through this panel and 20% of them were active in at least one assay; those are over-represented in the sample as a whole. The source made the active and inactive calls. Rule for the calls: active = growth percent below 10; inactive = the rest.
Would you mind answering with one of these outcomes? Yes (active), No (inactive)

Before answering, review these 4 worked examples.
>  <chemical smiles>
O=C(Cn1cc(CN2C(=O)c3ccccc3S2(=O)=O)nn1)Nc1nc2ccccc2s1

>  <tested system>
MALME-3M melanoma

>  <class assignment>
No

$$$$
>  <chemical smiles>
CCCCCOc1ccc(C(=O)/C(Br)=C/C(=O)O)cc1

>  <tested system>
MALME-3M melanoma

>  <class assignment>
No

$$$$
>  <chemical smiles>
N#Cc1c(NC(=O)c2ccccc2)sc2c1CCC(=O)C2

>  <tested system>
MALME-3M melanoma

>  <class assignment>
Yes

$$$$
>  <chemical smiles>
COc1ccc(-c2csc(NC(=O)CSc3nc(-c4ccccc4)cc(=O)[nH]3)n2)cc1

>  <tested system>
MALME-3M melanoma

>  <class assignment>
No

$$$$

Kindly consider the entry below.
[ask] How did this test come out for Cc1nc2sc(C(=O)Nc3ccccc3)c(N)c2cc1C(=O)c1ccccc1 ?
[reply] No

###

Test system: NCI-H23 lung
assay text: NCI-60 one-dose screen, 48 h (100 = growth as untreated, 0 = no growth, -100 = all killed)
assay setup: 10 µM unless noted
This is part of a sample that, as a whole, favours compounds with a hit. Of some 83,000 tested, about 20% had one in any assay.
Assignment: determine reported growth for the given molecules.
Numbers only, in %.

// solved cases for growth follow
>  <molecule>
N#Cc1c(-c2ccc(Cl)cc2)nc(NN=Cc2cccc(O)c2)nc1N1CCOCC1

>  <growth, %>
100

$$$$
>  <molecule>
COc1cc(NC(C)CCCNC(C)C)c2ncccc2c1OC (stereo not drawn)

>  <growth, %>
89.5

$$$$

Please give growth, item by item, for the list that follows.
1. O=C1c2c(c3c4ccc(Br)cc4oc3c3[nH]c4ccccc4c23)C(=O)N1O
2. O=C(O)c1ccc(-n2cc(/C=N/Nc3ccc(F)cc3)c(-c3cc4ccccc4oc3=O)n2)cc1
3. CC(C)(C)n1cc(-c2ccnc(NCCCNS(=O)(=O)c3ccc(F)cc3)c2)c(-c2cccc(F)c2)n1
4. O=C(Cn1c2c(c3ccccc31)CCCC2)Nc1ccc(-c2nc3ccccc3s2)cc1
5. COc1cc2oc(-c3cccc(NC(=O)c4cccc(Br)c4)c3)cc(=O)c2c(OC)c1OC
6. O=C(Nc1nn(-c2ccc(Cl)cc2Cl)nc1-c1ccccc1)c1ccccc1

[reply]
22.7
90.8
67.5
94.5
57.2
97.2

###

Tested on: HCT-15 colon
assay text: NCI-60 one-dose screen, 48 h
assay setup: 10 µM unless noted
This is part of a sample that, as a whole, favours compounds with a hit. Of some 83,000 tested, about 20% had one in any assay. Calls of active or inactive are those of the source. How the source made its calls: active means growth percent below 10; inactive means the rest.
The reply should name one outcome from active, inactive

// known answers, use as guide
>  <chemical smiles>
COCCNC(=O)c1ccc(-c2nc3ccc4[nH]ncc4c3c3c2CCCC3)cc1

>  <class assignment>
inactive

$$$$
>  <chemical smiles>
Cc1ccc(-c2nc(N3CCNCC3)c3oc(-c4ccccc4)nc3n2)cc1

>  <class assignment>
active

$$$$

Here is the next item to consider.
[ask] How did this test come out for C#CCOc1ccc2ncnc(Nc3ccc(NC(=O)CCl)cc3)c2c1 ?
[reply] active

###

System: MDA-MB-435 melanoma
assay text: NCI-60 one-dose screen, 48 h
assay setup: 10 µM unless noted
The panel holds about 83,000 compounds, 20% with a hit somewhere; the sample as a whole holds those more often. The source made the active and inactive calls. How the source made its calls: active means growth percent below 10; inactive means the rest.
Answer with one of the outcomes active, inactive

The following molecules have reported results that may help.
>  <molecule>
Cc1ccc(-c2nn(-c3ccccc3)cc2C=C2C(=O)ON=C2C(C)C)cc1

>  <class assignment>
inactive

$$$$
>  <molecule>
CCCC(O)Cn1ncc(C(=O)OCC)c1NC(=O)NCc1ccccc1F (stereo unspecified)

>  <class assignment>
inactive

$$$$
>  <molecule>
CC(=O)OC[C@]12CCC(C)(C)C[C@H]1[C@@]1(O)[C@H](O)C[C@@H]3[C@@]4(C)CCCNC(C)(C)[C@@H]4CC[C@@]3(C)[C@]1(C)CC2

>  <class assignment>
inactive

$$$$
>  <molecule>
S=C1CCSC(=S)N1CCCN1C(=S)CCSC1=S

>  <class assignment>
inactive

$$$$
>  <molecule>
COc1ccc2[nH]cc(-c3nc(-c4cn(C)c5c(Cl)nccc45)cs3)c2c1

>  <class assignment>
active

$$$$

[ask] Assay outcome for Cc1cnc(C(=O)NNc2nc3sc4c(c3c(=O)n2C)C(C)CCC4)cn1 (stereo unspecified) : what was it?
[reply] active

[ask] For Clc1ccc(CNc2c3ccccc3nc3ccccc23)cc1 , what call appears in the results of this test?
[reply] inactive

[ask] State the result this test recorded for C#Cc1cccc(Nc2ncnc3ccc(-c4cnc(N)nc4)cc23)c1 .
[reply] inactive

[ask] Check the results log: what was the call for O=C1NCCC12CCN(c1c(Cl)cncc1-c1ccc(O)cc1)CC2 ?
[reply] inactive

[ask] Can you look up the reported call for CC(=O)OCc1nc(C#N)c(N(C)C)o1 for me?
[reply] inactive

###

System: CAKI-1 renal
assay text: NCI-60 one-dose screen, 48 h
assay setup: 10 µM unless noted
The panel holds about 83,000 compounds, 20% with a hit somewhere; the sample as a whole holds those more often. Activity calls are given as the source filed them. The calls were made as follows: active = growth percent below 10; inactive = the rest.
Bench note: report the call from active, inactive

Example entries and their recorded answers appear below.
>  <molecule>
Cn1cc(-c2nc(-c3c[nH]c4ccncc34)cs2)c2ccccc21

>  <class assignment>
inactive

$$$$
>  <molecule>
C=CCn1c(SCC(=O)NCc2cc(C)c(O)c(C)c2)nc2ccc(Cl)cc2c1=O

>  <class assignment>
inactive

$$$$
>  <molecule>
CCOc1ccc(NC(=O)CSc2oc(-c3ccccc3)nc2S(=O)(=O)c2ccc(F)cc2)cc1

>  <class assignment>
inactive

$$$$
>  <molecule>
Cc1ccc(C2=Nc3c(N)ncnc3NC(c3ccc4c(c3)OCO4)C2)cc1 (configuration not stated)

>  <class assignment>
inactive

$$$$
>  <molecule>
COC(=O)c1c2c(c[n+]([O-])c1C)C(=O)C(NCc1ccccc1)=CC2=O

>  <class assignment>
active

$$$$
>  <molecule>
COC(=O)c1c2c(c(C)[n+]([O-])c1C)C(=O)C=C(NCc1ccc(OC)cc1)C2=O

>  <class assignment>
active

$$$$

Next item in the queue.
[ask] What outcome does the record of this test show for CCN(CC)CCOc1ccc(-c2c(-c3ccccc3)c(=O)oc3ccccc23)cc1 ?
[reply] inactive

Reference source: PubChem BioAssay (NCI)
